The measured values listed here are drawn from ChEMBL document CHEMBL3885861.

- Species on record: Rattus norvegicus
- METHOD: Open TG-GATES - Regimen: Single
- Type: toxicity, organism-based, Sprague-Dawley
- Design: regimen Single, gender Male, age 6 weeks
- MEASUREMENT_CONDITIONS: in vivo, po, 100 mg/kg, 3 h, tissue Plasma, route gavage, dose level Low
ASSAY_METRIC: GLC

O=C(O)c1cn(C2CC2)c2cc(N3CCNCC3)c(F)cc2c1=O :: 192 mg/dL
C[C@H](CS)C(=O)N1CCC[C@H]1C(=O)O :: 205.2 mg/dL
CCc1cc(C(N)=S)ccn1 [ETHIONAMIDE] :: 181.6 mg/dL
Clc1ccccc1CN1CCc2sccc2C1 :: 200.6 mg/dL
O=C(O)c1cc(/N=N/c2ccc(S(=O)(=O)Nc3ccccn3)cc2)ccc1O :: 201.8 mg/dL

----------
Below, each of the compounds is paired with its reported PT value.
- Species on record: Rattus norvegicus
- METHOD: Open TG-GATES - Regimen: Single
- Type: toxicity, organism-based, Sprague-Dawley
- Parameters: regimen Single, gender Male, age 6 weeks
- MEASUREMENT_CONDITIONS: in vivo, po, 1000 mg/kg, 24 h, tissue Blood, route gavage, dose level High
ASSAY_METRIC: PT (s)

CCc1cc(C(N)=S)ccn1 [ETHIONAMIDE] :: 15.4
Clc1ccccc1CN1CCc2sccc2C1 [TICLOPIDINE] :: 13.1
O=C(O)c1cn(C2CC2)c2cc(N3CCNCC3)c(F)cc2c1=O [CIPROFLOXACIN] :: 12.4
O=C(O)c1cc(/N=N/c2ccc(S(=O)(=O)Nc3ccccn3)cc2)ccc1O [SULFASALAZINE] :: 13.2
C[C@H](CS)C(=O)N1CCC[C@H]1C(=O)O [CAPTOPRIL] :: 11.3

----------
- Species: Rattus norvegicus
- METHOD: Open TG-GATES - Regimen: Single
- Assay type: toxicity, organism-based, Sprague-Dawley
- Parameters: regimen Single, gender Male, age 6 weeks
- MEASUREMENT_CONDITIONS: in vivo, po, 1000 mg/kg, 3 h, tissue Kidney, route gavage, dose level High
Below, each of the compounds is paired with its reported KIDNEY_TOTAL value.
ASSAY_METRIC: KIDNEY_TOTAL (g)

O=C(O)c1cn(C2CC2)c2cc(N3CCNCC3)c(F)cc2c1=O :: 1.7
C[C@H](CS)C(=O)N1CCC[C@H]1C(=O)O :: 2.1
Clc1ccccc1CN1CCc2sccc2C1 :: 1.9
CCc1cc(C(N)=S)ccn1 [ETHIONAMIDE] :: 2
O=C(O)c1cc(/N=N/c2ccc(S(=O)(=O)Nc3ccccn3)cc2)ccc1O :: 1.9

----------
Below, each of the molecules is paired with its reported ALT value.
- Species on record: Rattus norvegicus
- METHOD: Open TG-GATES - Regimen: Daily Repeat
- Assay type: toxicity, organism-based, Sprague-Dawley
- Set-up: regimen Daily Repeat, gender Male, age 6 weeks
- MEASUREMENT_CONDITIONS: in vivo, po, 0 mg/kg, 72 h, tissue Plasma, route gavage, dose level Control, time 3 day
ASSAY_METRIC: ALT (IU/L)

CN(C)CCC=C1c2ccccc2CCc2ccccc21 [AMITRIPTYLINE] :: 54.6
CSc1ccc2c(c1)N(CCC1CCCCN1C)c1ccccc1S2 (centres undefined) [THIORIDAZINE] :: 37
Cn1c(=O)c2[nH]cnc2n(C)c1=O.O [THEOPHYLLINE] :: 48.4
CC(=O)Oc1ccccc1C(=O)O [ASPIRIN] :: 35.6
NC(=O)N/N=C/c1ccc([N+](=O)[O-])o1 [NITROFURAZONE] :: 51.2
Clc1ccccc1CN1CCc2sccc2C1 [TICLOPIDINE] :: 42.8
NC(=O)N1c2ccccc2C=Cc2ccccc21 [CARBAMAZEPINE] :: 41.4
C[C@H](CS)C(=O)N1CCC[C@H]1C(=O)O [CAPTOPRIL] :: 40.4
O=C(O)c1cn(C2CC2)c2cc(N3CCNCC3)c(F)cc2c1=O [CIPROFLOXACIN] :: 38.8
O=C(O)c1cc(/N=N/c2ccc(S(=O)(=O)Nc3ccccn3)cc2)ccc1O [SULFASALAZINE] :: 39.8
COc1ccc2c(c1)c(CC(=O)O)c(C)n2C(=O)c1ccc(Cl)cc1 [INDOMETHACIN] :: 33.2
CCCC(CCC)C(=O)O [VALPROIC ACID] :: 35.6
CCc1cc(C(N)=S)ccn1 [ETHIONAMIDE] :: 39
COc1ccc(Cc2nccc3cc(OC)c(OC)cc23)cc1OC [PAPAVERINE] :: 41.4
